biological target: recombinant PIM-1 (Homo sapiens, UniProt P11309); test: PIM-1 kinase assay (radiometric, 15 uM ATP, DMSO 4%); format: biochemical; settings: Table 1; given for compounds with IC50 at or below 2 micromolar; 15 uM ATP; read-out: PIM-1 IC50
Sequence (P11309 whole entry): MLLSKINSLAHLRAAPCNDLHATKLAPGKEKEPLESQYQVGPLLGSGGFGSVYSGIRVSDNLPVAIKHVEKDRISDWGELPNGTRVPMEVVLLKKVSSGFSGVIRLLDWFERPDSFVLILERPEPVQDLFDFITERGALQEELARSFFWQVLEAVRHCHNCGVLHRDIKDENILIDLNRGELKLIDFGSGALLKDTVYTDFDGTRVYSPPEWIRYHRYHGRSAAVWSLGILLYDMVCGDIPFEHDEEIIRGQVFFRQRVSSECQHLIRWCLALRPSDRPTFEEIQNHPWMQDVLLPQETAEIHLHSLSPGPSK
pIC50: −log10 of the molar value.
endpoint name: pIC50

1) CCN(CC)CCNC(=O)c1cccc(-c2ccc(/C=C3/C(=O)Nc4ccccc43)o2)c1 | > 6.00
2) CCN1CCCC1CNC(=O)c1ccc(Cl)c(-c2ccc(/C=C3/C(=O)Nc4ccc(F)cc43)o2)c1 (centres unmarked) | > 6.00
3) O=C1Nc2ccc(Cl)cc2/C1=C\c1ccc(-c2cccc(C(=O)NCCCN3CCOCC3)c2)o1 | > 6.00
4) O=C1Nc2ccccc2/C1=C\c1ccc(-c2cccc(CO)c2)o1 | > 5.70
5) Cn1cncc1CNC(=O)c1ccc(-c2ccc(/C=C3/C(=O)Nc4ccccc43)o2)cc1 | > 6.00
6) C/C(=C1\C(=O)Nc2ccc(Cl)cc21)c1ccc(-c2ccc(C(=O)N3CCCN(C)CC3)cc2)o1 | > 6.00
7) CN1CCCCC1CNC(=O)c1ccc(-c2ccc(/C=C3/C(=O)Nc4ccccc43)o2)cc1 (centres unmarked) | > 5.70
8) CN1CCC(N(C)C(=O)c2cccc(-c3ccc(/C=C4/C(=O)Nc5ccc(Cl)cc54)o3)c2)C1 (centres unmarked) | > 5.70

---

molecular target: recombinant PIM-1 (Homo sapiens); experiment: PIM-1 kinase assay (radiometric, 15 uM ATP, DMSO 4%); type: biochemical; conditions: Table 1; % inhibition at the high dose (2 micromolar) in a single screening assay; 15 μM ATP
endpoint name: inhibition at 2 µM (%)

1. CN(C)C1CCN(C(=O)c2cccc(-c3ccc(/C=C4/C(=O)Nc5ccc(Cl)cc54)o3)c2)CC1 | 38.1
2. CN1CCCCC1CNC(=O)c1ccc(-c2ccc(/C=C3/C(=O)Nc4ccc(F)cc43)o2)cc1 (stereo not shown) | 90.6
3. CN1CCCCC1CNC(=O)c1cccc(-c2ccc(/C=C3/C(=O)Nc4ccc(Cl)cc43)o2)c1 (stereo not shown) | -9.22
4. Cn1cncc1CNC(=O)c1ccccc1-c1ccc(/C=C2/C(=O)Nc3ccccc32)o1 | -4.35
5. CN1CCCCC1CNC(=O)c1cccc(-c2ccc(/C=C3/C(=O)Nc4ccc([N+](=O)[O-])cc43)o2)c1 (stereo not shown) | 23.5
6. CN1CCC(N(C)C(=O)c2ccc(-c3ccc(/C=C4/C(=O)Nc5ccccc54)o3)cn2)C1 (stereo not shown) | 5.08
7. Cc1cnc(CNC(=O)c2cccc(-c3ccc(/C=C4/C(=O)Nc5ccc(Cl)cc54)o3)c2)cn1 | 21
8. CN1CCCC(NC(=O)c2cccc(-c3ccc(/C=C4/C(=O)Nc5ccc(Cl)cc54)o3)c2)C1 (stereo not shown) | 42.6
9. CN1CCCCC1CNC(=O)c1cccc(-c2ccc(/C=C3/C(=O)Nc4ccc(C(F)(F)F)cc43)o2)c1 (stereo not shown) | -4.56
10. CN1CCC(N(C)C(=O)c2cc(-c3ccc(/C=C4/C(=O)Nc5ccc(F)cc54)o3)ccc2Cl)C1 (stereo not shown) | 37.1
11. CN1CCC(N(C)C(=O)c2cccc(-c3coc(/C=C4/C(=O)Nc5ccc(F)cc54)c3)c2)C1 (stereo not shown) | 2.87
12. CCN1CCCC1CNC(=O)c1cccc(-c2coc(/C=C3/C(=O)Nc4ccc(F)cc43)c2)c1 (stereo not shown) | 17.1
13. O=C1Nc2ccccc2/C1=C\c1ccc(-c2ccc(Cl)c(C(=O)NCC3CCCN3)c2)o1 (stereo not shown) | -33.4
14. CN1CCCCC1CNC(=O)c1ccc(-c2ccc(/C=C3/C(=O)Nc4ccccc43)o2)cn1 (stereo not shown) | 7.61
15. O=C1Nc2ccccc2/C1=C\c1ccc(-c2ccc(C(=O)NCc3ccncc3)nc2)o1 | 43.6
16. O=C1Nc2ccc(C(F)(F)F)cc2/C1=C\c1ccc(-c2cccc(C(=O)NCCN3CCCC3)c2)o1 | 22.9
17. CN1C(=O)/C(=C/c2ccc(-c3cccc(C(=O)O)c3)o2)c2ccccc21 | 31.6
18. CCN(CC)CCNC(=O)c1ccc(-c2ccc(/C=C3/C(=O)Nc4ccc(F)cc43)o2)cc1 | 94.2
19. CN(CCc1ccccn1)C(=O)c1cccc(-c2ccc(/C=C3/C(=O)Nc4ccc(Cl)cc43)o2)c1 | -0.11
20. O=C1Nc2ccccc2/C1=C\c1ccc(-c2ccccc2C(=O)O)o1 | 11.4
21. O=C1Nc2cc(F)ccc2/C1=C\c1ccc(-c2cccc(C(=O)NCCN3CCCC3)c2)o1 | 21
22. CN(C)CCNC(=O)c1cc(-c2ccc(/C=C3/C(=O)Nc4ccccc43)o2)ccc1Cl | 36.7
23. CC1CCN(CCCNC(=O)c2cccc(-c3ccc(/C=C4/C(=O)Nc5ccc(Cl)cc54)o3)c2)CC1 | 25.2
24. O=C1Nc2ccccc2/C1=C\c1ccc(-c2ccccc2C(=O)NCCN2CCCC2)o1 | 3.52
25. O=C1Nc2c(cccc2C(F)(F)F)/C1=C\c1ccc(-c2cccc(C(=O)NCCN3CCCC3)c2)o1 | 8.16
26. Cn1cncc1CNC(=O)c1cccc(-c2coc(/C=C3/C(=O)Nc4ccc(F)cc43)c2)c1 | 12.7
27. CN1CCCN(C(=O)c2ccc(-c3ccc(/C=C4/C(=O)Nc5ccccc54)o3)cn2)CC1 | 20.6
28. CN(C)C1CCN(C(=O)c2ccccc2-c2ccc(/C=C3/C(=O)Nc4ccc(F)cc43)o2)CC1 | 8.84
29. O=C1Nc2ccc(F)cc2/C1=C\c1cc(-c2cccc(C(=O)NCc3ccncc3)c2)co1 | -19.1
30. CCN1CCCC1CNC(=O)c1ccc(-c2ccc(/C=C3/C(=O)Nc4ccccc43)o2)cn1 (stereo not shown) | 24.3
31. CN1CCC(N(C)C(=O)c2ccc(-c3ccc(/C=C4/C(=O)Nc5ccc(F)cc54)o3)cc2)C1 (stereo not shown) | 54.8

---

molecular target: recombinant PIM-1 (Homo sapiens); assay: PIM-1 kinase assay (radiometric, 15 uM ATP, DMSO 4%); format: biochemical; conditions: Table 4; 15 um ATP; read-out: PIM1: IC50 (15 um ATP)
pIC50: −log10 of the molar value.
Listed below: pIC50 values for each entry.
endpoint name: pIC50

1) CCN(CC)CCC(=O)Nc1cccc(-c2ccc(/C=C3/C(=O)Nc4ccccc43)o2)c1 [drawing 235] | 6.59
2) CN(C)CCNC(=O)c1cccc(-c2ccc(/C=C3/C(=O)Nc4ccc(Cl)cc43)o2)c1 [drawing 232] | 6.54
3) O=C1Nc2ccc(Cl)cc2/C1=C\c1ccc(-c2cccc(C(=O)NCCN(CCO)CCO)c2)o1 [drawing 238] | 7.09
4) O=C1Nc2ccc(Cl)cc2/C1=C\c1ccc(-c2cccc(C(=O)NCCCn3ccnc3)c2)o1 [drawing 233] | 6.42
5) O=C(CN1CCCC1)Nc1cccc(-c2ccc(/C=C3/C(=O)Nc4ccccc43)o2)c1 [drawing 236] | 6.26
6) Nc1cccc(-c2ccc(/C=C3/C(=O)Nc4ccccc43)o2)c1 [drawing 234] | 6.00

---

target: recombinant PIM-1 (Homo sapiens, UniProt P11309); experiment: PIM-1 kinase assay (radiometric, 15 uM ATP, DMSO 4%); format: biochemical; conditions: Table 3; DMSO 4%; read-out: PIM1: IC50 (DMSO 4%)
endpoint name: IC50

1) NC(=O)c1ccc(-c2ccc(/C=C3\C(=O)Nc4ccc(Cl)cc43)o2)cc1 | < 1000 nM
2) O=C1Nc2ccc(Cl)cc2/C1=C\c1ccc(-c2ccc(OCCN3CCOCC3)cc2)o1 | < 1000 nM
3) NS(=O)(=O)c1ccc(-c2ccc(/C=C3/C(=O)Nc4ccc(Cl)cc43)o2)cc1 | < 1000 nM
4) CCN(CC)CCNC(=O)c1ccc(-c2ccc(/C=C3/C(=O)Nc4ccc(Cl)cc43)o2)cc1 [drawing 216] | < 1000 nM
5) O=C1Nc2ccc(Cl)cc2/C1=C/c1ccc(-c2cnn(CCN3CCOCC3)c2)o1 | < 1000 nM
6) CN1CCN(c2ccc(-c3ccc(/C=C4\C(=O)Nc5ccc(Cl)cc54)o3)cn2)CC1 | < 1000 nM
7) CC(=O)Nc1cccc(-c2ccc(/C=C3\C(=O)Nc4ccc(Cl)cc43)o2)c1 | < 1000 nM
8) O=C1Nc2ccc(Cl)cc2/C1=C\c1ccc(-c2cccc(-c3nnc[nH]3)c2)o1 | < 1000 nM
9) CN1CCCN(C(=O)c2cccc(-c3ccc(/C=C4/C(=O)Nc5ccc(F)cc54)o3)c2)CC1 | < 1000 nM
10) CN1CCCN(C(=O)c2cccc(-c3ccc(/C(=C4/C(=O)Nc5ccc(Cl)cc54)C4CC4)o3)c2)CC1 | > 1100 nM
11) NC(=O)c1cccc(-c2ccc(/C=C3\C(=O)Nc4ccc(Cl)cc43)o2)c1 | < 1000 nM
12) O=C1Nc2ccc(Cl)cc2/C1=C/c1ccc(-c2ccc3cc(O)ccc3c2)o1 | < 1000 nM
13) CN1CCCN(C(=O)c2ccc(Cl)c(-c3ccc(/C=C4/C(=O)Nc5ccc(F)cc54)o3)c2)CC1 | < 1000 nM
14) CS(=O)(=O)Nc1ccc(-c2ccc(/C=C3\C(=O)Nc4ccc(Cl)cc43)o2)cc1 | < 1000 nM
